- Subject Of Test: HDAC3 (Homo sapiens (Human))
- Sequence (O15379 whole entry, species assumed): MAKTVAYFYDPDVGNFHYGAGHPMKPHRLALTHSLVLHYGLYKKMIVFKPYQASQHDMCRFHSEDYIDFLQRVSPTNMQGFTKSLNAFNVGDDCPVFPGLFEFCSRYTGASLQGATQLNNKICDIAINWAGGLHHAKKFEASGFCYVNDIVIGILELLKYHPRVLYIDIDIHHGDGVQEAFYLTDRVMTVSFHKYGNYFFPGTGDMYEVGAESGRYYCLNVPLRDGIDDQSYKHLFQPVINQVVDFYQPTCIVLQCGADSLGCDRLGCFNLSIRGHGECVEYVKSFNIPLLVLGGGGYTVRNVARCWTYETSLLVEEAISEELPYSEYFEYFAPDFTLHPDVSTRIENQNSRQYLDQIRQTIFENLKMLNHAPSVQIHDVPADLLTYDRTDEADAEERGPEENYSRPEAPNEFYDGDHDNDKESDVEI
- Sequence (Q9Y618 395-489 partner, species assumed): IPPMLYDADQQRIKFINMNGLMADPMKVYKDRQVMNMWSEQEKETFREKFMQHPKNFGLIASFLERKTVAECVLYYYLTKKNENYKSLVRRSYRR
Metric: IC50
Note to self: number, then unit, no commentary.

Record O=C(CCCCCCN(c1ccccn1)c1ccc2ccccc2n1)NO [Example 4] . Reported IC50: 62 nM

###

- Subject Of Test: UniProtKB Q9BY41
- Sequence (Q9BY41 whole entry, species assumed): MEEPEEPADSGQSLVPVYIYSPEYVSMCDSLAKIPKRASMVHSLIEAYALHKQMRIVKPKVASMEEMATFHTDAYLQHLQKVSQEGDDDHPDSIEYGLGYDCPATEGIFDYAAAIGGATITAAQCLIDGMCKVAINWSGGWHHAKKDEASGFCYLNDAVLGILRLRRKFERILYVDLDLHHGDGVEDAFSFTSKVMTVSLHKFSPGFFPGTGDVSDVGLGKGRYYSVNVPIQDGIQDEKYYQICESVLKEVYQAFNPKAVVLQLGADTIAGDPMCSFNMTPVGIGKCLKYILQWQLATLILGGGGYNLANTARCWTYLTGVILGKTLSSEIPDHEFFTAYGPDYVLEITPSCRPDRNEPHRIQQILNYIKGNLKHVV
Metric: pIC50
Numbers only, as −log10 of the molar value.

Record O=C(CCCCCCN(c1ccccn1)c1ccc2ccccc2n1)NO . Reported pIC50: 6.51

###

IC50, HDAC6 (Homo sapiens (Human), UniProt Q9UBN7), per-entry values.
One number for each entry, in nM.

Some solved cases for reference:
| Compound | IC50 [nM] |
| --- | --- |
| O=C(CCCCCC=C(c1ccccn1)c1ccccn1)NO [Example 5] | 22 |
| O=C(CCCCCCN(c1ccccn1)c1cc(OCc2ccccc2)ccn1)NO [Example 15] | 3 |
| COc1ccc(N(CCCCCCC(=O)NO)c2ccccn2)nc1 [Example 11] | 13 |
| O=C(CCCCCCN(c1ccccn1)c1ccc(OCc2ccccc2)cn1)NO [Example 10] | 57 |
| O=C(CCCCCCN(c1ccccn1)c1cc(-c2ccccc2)ccn1)NO [Example 8] | 19 |

Here is the next item to consider.
Record Cc1ccc(N(CCCCCCC(=O)NO)c2ccccn2)nc1 [Example 9] . Reported IC50: 31

###

pIC50, UniProt Q9UKV0, per-entry values.
Sequence (Q9UKV0 whole entry, species assumed): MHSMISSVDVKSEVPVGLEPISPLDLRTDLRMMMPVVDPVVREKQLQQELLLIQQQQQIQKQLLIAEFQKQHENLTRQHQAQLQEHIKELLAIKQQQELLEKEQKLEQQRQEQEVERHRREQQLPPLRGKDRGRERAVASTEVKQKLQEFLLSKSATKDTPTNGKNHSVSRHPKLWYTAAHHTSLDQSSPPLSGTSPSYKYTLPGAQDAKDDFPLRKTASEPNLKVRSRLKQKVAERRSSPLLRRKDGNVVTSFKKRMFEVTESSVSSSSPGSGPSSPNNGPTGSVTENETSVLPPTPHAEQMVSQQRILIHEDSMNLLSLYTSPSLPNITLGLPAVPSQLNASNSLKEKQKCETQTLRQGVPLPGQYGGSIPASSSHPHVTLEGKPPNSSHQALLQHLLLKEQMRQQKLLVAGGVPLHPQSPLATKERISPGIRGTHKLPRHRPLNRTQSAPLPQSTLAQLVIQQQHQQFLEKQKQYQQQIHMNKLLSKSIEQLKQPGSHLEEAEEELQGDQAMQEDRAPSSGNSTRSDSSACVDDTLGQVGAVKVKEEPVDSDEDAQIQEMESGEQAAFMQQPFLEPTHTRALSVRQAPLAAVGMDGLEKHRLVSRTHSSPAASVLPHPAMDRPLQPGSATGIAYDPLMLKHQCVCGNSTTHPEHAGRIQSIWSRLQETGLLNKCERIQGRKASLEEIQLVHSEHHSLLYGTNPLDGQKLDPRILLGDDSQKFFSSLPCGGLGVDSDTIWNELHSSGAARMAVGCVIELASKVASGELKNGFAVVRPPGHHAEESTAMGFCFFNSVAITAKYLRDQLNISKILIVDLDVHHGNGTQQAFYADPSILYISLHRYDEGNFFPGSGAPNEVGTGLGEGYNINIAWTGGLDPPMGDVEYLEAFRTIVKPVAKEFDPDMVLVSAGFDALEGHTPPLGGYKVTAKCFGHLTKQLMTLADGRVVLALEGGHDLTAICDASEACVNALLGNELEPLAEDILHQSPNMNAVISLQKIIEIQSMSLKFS
One number for each entry, as −log10 of the molar value.

Required: pIC50, one value per molecule below.
1. Cc1ccc(N(CCCCCCC(=O)NO)c2ccccn2)nc1
2. O=C(CCCCCCN(c1ccccn1)c1cc2ccccc2cn1)NO

6.12
6.84

###

- Subject Of Test: UniProtKB Q92769
- Sequence (Q92769 whole entry, species assumed): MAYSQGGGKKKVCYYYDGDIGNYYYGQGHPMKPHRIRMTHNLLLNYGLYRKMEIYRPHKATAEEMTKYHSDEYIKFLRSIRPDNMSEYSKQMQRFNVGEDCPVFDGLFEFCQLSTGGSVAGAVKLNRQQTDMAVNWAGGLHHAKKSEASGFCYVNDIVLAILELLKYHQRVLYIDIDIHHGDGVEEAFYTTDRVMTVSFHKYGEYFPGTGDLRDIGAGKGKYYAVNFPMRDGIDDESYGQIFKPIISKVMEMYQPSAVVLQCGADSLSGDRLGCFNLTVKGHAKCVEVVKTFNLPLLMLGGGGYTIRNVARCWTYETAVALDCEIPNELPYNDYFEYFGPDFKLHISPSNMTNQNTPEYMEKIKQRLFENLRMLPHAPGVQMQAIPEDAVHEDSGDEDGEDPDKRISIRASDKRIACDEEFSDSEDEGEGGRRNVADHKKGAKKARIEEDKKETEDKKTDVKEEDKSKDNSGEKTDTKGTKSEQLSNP
Metric: IC50 (µM)
Answers are plain numbers, in µM.

Record Cc1ccc(N(CCCCCCC(=O)NO)c2ccccn2)nc1 . Reported IC50: 1.14
